meta.source: ChEMBL document CHEMBL3822400

Would you mind telling me the reported Ki of each entry?
Target: Translocator protein (Rattus norvegicus, UniProt P16257)
Sequence (P16257 whole entry, looked up): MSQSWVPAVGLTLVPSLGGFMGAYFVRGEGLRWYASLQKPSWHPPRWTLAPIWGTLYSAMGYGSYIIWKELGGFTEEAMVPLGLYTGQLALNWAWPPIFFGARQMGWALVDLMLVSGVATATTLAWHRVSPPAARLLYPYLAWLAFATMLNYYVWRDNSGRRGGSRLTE
Assay: Displacement of [3H]-PK11195 from TSPO in rat C6 cell lysate after 2 hrs by liquid scintillation counting
One number for each entry, in nM.

-- ask Look up Translocator protein (Rattus norvegicus, UniProt P16257) data: Ki of CCc1cc(CC)n2nc(-c3ccc(OC)cc3)c(CC(=O)N3CCCCC3)c2n1 , then report it.
-- reply 49.2

Hey, quick one: what's Ki for each of these?
1. CCCCCN(CCCCC)C(=O)Cc1c(-c2ccc(OC)cc2)nn2c(CC)cc(CC)nc12
2. CCCN(CCC)C(=O)Cc1c(-c2ccc(OC)cc2)nn2c(CC)cc(CC)nc12
3. CCc1cc(CC)n2nc(-c3ccc(OC)cc3)c(CC(=O)N(C)c3ccccc3)c2n1
4. CCc1cc(CC)n2nc(-c3ccc(OC)cc3)c(CC(=O)N(C)C)c2n1

-- reply
[2.17, 5.57, 6.44, 37.6]

The following molecules each have a reported value; give each one's Ki.
1. CCc1cc(CC)n2nc(-c3ccc(OC)cc3)c(CC(=O)N(C(C)C)C(C)C)c2n1
2. CCc1cc(CC)n2nc(-c3ccc(OC)cc3)c(CC(=O)N(CC(C)C)CC(C)C)c2n1

-- reply
20
13.2
